This collection of values is drawn from patent US20230399394A1.

Entries and their measured kon follow.
Target Or System: T1, Human IL-33-his (human, UniProt O95760 112-270, biotinylated with EZ-Link NHS-Biotin where used as IL-33-his-biotin)
T1 construct: Used plain (SPR, cell assays) and biotinylated (ELISA); also called IL-33-his-biotin
T1 sequence: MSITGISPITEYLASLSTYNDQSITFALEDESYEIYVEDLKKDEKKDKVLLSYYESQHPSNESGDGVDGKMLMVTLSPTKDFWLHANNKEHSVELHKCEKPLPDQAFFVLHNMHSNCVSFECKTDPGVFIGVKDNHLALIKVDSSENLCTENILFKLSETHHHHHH
Test Protocol: SPR Biacore 8K, antibody captured on Protein A/G chip, IL-33-his as analyte, 1:1 model
Protocol: A chip with covalently coupled Protein A/G (purchased from GE Healthcare, catalog number BR-1005-30) was used to capture each antibody to be tested, and the relevant operating parameters were as follows: The antibody concentration was […], the contact time was 75 s, the flow rate was […], and the regeneration contact time was 30 s. The IL-33-his antigen was diluted with HBS-EP pH7.4 buffer solution (purchased from GE Healthcare, catalog number BR-1006-69). […]
Measure: kon (M⁻¹ s⁻¹)

>>> reported("871G1-Hu2 (antibody, human IgG4 S228P, kappa, V domains shown, Humanized; also called humanized antibody 871G1-Hu2) VH: QVQLQESGPGLVKPSETLSLTCTVSGFSLSKYGVHWIRQPPGKGLEWLGVLRAGGTISYNSALMSRLTISEDISKSQVSLKLSSVTAADTAVYYCARDHYYYSSFGGFASWGQGTLVTVSS VL: DIQMTQSPSSVSASVGDRVTITCLASQTIGAWLAWYQQKPGKSPKLLIYAATRLADGVPSRFSGSGSGTDFTLTISSLQPEDFATYYCQQLNSTPYTFGQGTKVEIKR")
300000
>>> reported("874F7-Hu2 (antibody, human IgG4 S228P, kappa, V domains shown, Humanized; also called humanized antibody 874F7-Hu2) VH: QVQLQESGPGLVKPSETLSLTCTVSGFSLSKYGVHWIRQPPGKGLEWLGVLRAGGSTGYNSALMSRLTISKDSSKSQVSLKLSSVTAADTAVYYCVRDHYYYSSYGGFVYWGQGTLVTVSS VL: DIQMTQSPSSVSASVGDRVTITCLASQTIGAWLAWYQQKPGKSPKLLIYAATRLADGVPSRFSGSGSGTDFTLTISSLQPEDFATYYCQQLDSSPYTFGQGTKVEIKR")
194000
>>> reported("871G1-Hu1 (antibody, human IgG4 S228P, kappa, V domains shown, Humanized; also called humanized antibody 871G1-Hu1) VH: QVQLQESGPGLVKPSETLSLTCTVSGFSLSKYGVHWIRQPPGKGLEWIGVLRAGGTISYNSALMSRVTISEDISKSQVSLKLSSVTAADTAVYYCARDHYYYSSFGGFASWGQGTLVTVSS VL: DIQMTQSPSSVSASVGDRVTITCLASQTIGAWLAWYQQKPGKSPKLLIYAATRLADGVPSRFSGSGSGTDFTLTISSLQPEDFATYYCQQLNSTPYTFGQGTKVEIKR")
295000
>>> reported("864F3-Hu5 (antibody, human IgG4 S228P, kappa, V domains shown, Humanized; also called humanized antibody 864F3-Hu5) VH: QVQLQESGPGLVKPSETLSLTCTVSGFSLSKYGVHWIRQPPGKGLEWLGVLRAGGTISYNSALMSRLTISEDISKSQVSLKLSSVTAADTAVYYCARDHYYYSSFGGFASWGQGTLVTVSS VL: DIQMTQSPSSLSASVGDRVTITCLASQTIATWLAWYQQKPGKSPKLLIYAATRLADGVPSRFSGSGSGTDFTLTISSLQPEDFATYYCQQLYNTPYTFGQGTKVEIKR")
323000
>>> reported("864F3-Hu4 (antibody, human IgG4 S228P, kappa, V domains shown, Humanized; also called humanized antibody 864F3-Hu4) VH: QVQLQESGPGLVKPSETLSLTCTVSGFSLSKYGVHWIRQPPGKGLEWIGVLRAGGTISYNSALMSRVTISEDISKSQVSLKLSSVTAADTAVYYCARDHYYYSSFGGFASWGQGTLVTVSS VL: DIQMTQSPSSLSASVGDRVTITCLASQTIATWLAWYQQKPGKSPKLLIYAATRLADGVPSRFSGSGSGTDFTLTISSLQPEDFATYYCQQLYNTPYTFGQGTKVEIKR")
323000
